PROTOCOL DETAILS: Oral pharmacokinetics in ICR mice
Type: in vivo, mouse
CONDITION: male, mouse; ICR mice, oral, 30 mg/kg, plasma; read-out: MRT0-∞
Method: Dosing regimen: 6 normal ICR mice, male, were divided into 2 groups (n=3), one group was orally given the positive control ETC-1002, and one group was orally given the tested compound A3, both administered at a dose of 30 mg/kg; blood was taken from the eye orbits at different time points before and after the administration of the drug, and the plasma drug concentration was detected.
VALUE KIND: MRT inf (h)

INSERT INTO results (molecule, value_kind, observed_result) VALUES
  ('CC(C)(CCCC/C=C/CCCCCC(C)(C)C(=O)O)C(=O)O', 'MRT inf', 8.01),
  ('CC(C)(CCCCCC(O)CCCCCC(C)(C)C(=O)O)C(=O)O [ETC-1002, Bempedoic acid, reference compound]', 'MRT inf', 6.81);

----------
Catalogue of Cmax values
PROTOCOL DETAILS: Oral pharmacokinetics in ICR mice
Assay type: in vivo, mouse
CONDITION: male, mouse; ICR mice, oral, 30 mg/kg, plasma
VALUE KIND: Cmax

INSERT INTO results (compound, value_kind, observed_result) VALUES
  ('CC(C)(CCCCCC(O)CCCCCC(C)(C)C(=O)O)C(=O)O [ETC-1002, Bempedoic acid, reference compound]', 'Cmax', '3810 ng/mL'),
  ('CC(C)(CCCC/C=C/CCCCCC(C)(C)C(=O)O)C(=O)O [Compound A3]', 'Cmax', '13400 ng/mL');

----------
PROTOCOL DETAILS: Oral pharmacokinetics in ICR mice
Format: in vivo, mouse
CONDITION: male, mouse; ICR mice, oral, 30 mg/kg, plasma
VALUE KIND: AUC(0-inf) (ng·h/mL)

INSERT INTO assay_data (compound, value_units, observed_result) VALUES
  ('CC(C)(CCCC/C=C/CCCCCC(C)(C)C(=O)O)C(=O)O', 'ng·h/mL', 74200),
  ('CC(C)(CCCCCC(O)CCCCCC(C)(C)C(=O)O)C(=O)O [ETC-1002, Bempedoic acid, reference compound]', 'ng·h/mL', 15600);

----------
PROTOCOL DETAILS: Oral pharmacokinetics in ICR mice
Assay type: in vivo, mouse
CONDITION: male, mouse; ICR mice, oral, 30 mg/kg, plasma
Listed here: items and their measured half-life.
VALUE KIND: half-life (min)

INSERT INTO assay_data (molecule, value_units, observed_result) VALUES
  ('CC(C)(CCCC/C=C/CCCCCC(C)(C)C(=O)O)C(=O)O [Compound A3]', 'min', 339),
  ('CC(C)(CCCCCC(O)CCCCCC(C)(C)C(=O)O)C(=O)O [ETC-1002, Bempedoic acid, reference compound]', 'min', 267);

----------
Quick reference: pIC50 of the listed items.
STUDY TARGET: Human-derived ACLY protein (Homo sapiens)
Sequence (P53396 1-1101): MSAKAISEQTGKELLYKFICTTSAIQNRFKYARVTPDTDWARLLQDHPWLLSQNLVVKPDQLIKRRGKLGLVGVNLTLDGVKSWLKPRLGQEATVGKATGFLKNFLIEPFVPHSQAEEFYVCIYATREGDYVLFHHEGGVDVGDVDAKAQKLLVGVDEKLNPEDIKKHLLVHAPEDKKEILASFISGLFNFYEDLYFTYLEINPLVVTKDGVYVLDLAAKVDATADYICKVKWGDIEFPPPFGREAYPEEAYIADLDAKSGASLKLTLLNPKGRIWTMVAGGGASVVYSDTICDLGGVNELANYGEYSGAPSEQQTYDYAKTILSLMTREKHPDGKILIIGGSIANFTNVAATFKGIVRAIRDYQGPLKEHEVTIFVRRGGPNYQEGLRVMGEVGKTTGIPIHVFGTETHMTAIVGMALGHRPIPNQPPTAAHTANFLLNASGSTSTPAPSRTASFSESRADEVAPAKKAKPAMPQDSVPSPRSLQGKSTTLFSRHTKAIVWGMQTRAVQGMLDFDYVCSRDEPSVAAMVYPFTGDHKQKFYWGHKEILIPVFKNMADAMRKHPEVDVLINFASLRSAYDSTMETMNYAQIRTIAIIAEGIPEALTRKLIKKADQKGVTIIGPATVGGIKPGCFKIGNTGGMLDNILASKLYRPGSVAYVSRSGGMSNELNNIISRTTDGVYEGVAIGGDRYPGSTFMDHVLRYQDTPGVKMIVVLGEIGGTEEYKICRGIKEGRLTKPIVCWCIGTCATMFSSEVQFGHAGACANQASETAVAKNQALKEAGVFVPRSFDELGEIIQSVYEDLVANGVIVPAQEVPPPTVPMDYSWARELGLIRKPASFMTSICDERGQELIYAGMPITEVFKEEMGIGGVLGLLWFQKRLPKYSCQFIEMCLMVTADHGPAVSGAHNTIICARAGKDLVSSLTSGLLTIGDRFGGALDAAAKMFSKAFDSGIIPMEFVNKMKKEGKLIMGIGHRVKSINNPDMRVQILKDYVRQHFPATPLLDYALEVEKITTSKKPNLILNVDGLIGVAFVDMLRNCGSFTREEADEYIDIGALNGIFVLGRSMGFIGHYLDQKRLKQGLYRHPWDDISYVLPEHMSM
PROTOCOL DETAILS: ACLY citrate cleavage enzyme inhibition, ADP-Glo assay
CONDITION: 25 nM enzyme, 30 min, 37° C., read-out: IC50 for inhibition of ACLY enzyme activity (mean ± SD)
pIC50: −log10 of the molar value.
VALUE KIND: pIC50

INSERT INTO measurements (compound, study_target, observed_result) VALUES
  ('CC(C)(CCCCC/C=C\CCCCCCC(C)(C)C(=O)O)C(=O)O [Compound A8]', 'Human-derived ACLY protein (Homo sapiens)', 4.67),
  ('CC(C)(CCCCCC/C=C\CCCCCCC(C)(C)C(=O)O)C(=O)O [Compound A10]', 'Human-derived ACLY protein (Homo sapiens)', 5.02),
  ('CC(C)(CCCCCC1CC1CCCCC(C)(C)C(=O)O)C(=O)O (stereo not drawn) [Compound A12]', 'Human-derived ACLY protein (Homo sapiens)', 4.24);
